assay: Half-lives after intravenous dosage in rats; conditions: rat, in vivo, 10 mg/kg, one rat, i.v. 10 mg/kg, read-out: half-life, distribution phase (converted)
Measured Endpoint: half-life (min)
Give bare numbers, in min.

## Task Which value of half-life has been reported for Clc1cc2c(cc1Cl)Sc1cc(Cl)c(Cl)cc1N2 [TCPT, 2,3,7,8-tetrachlorophenothiazine] in the records?
## Result 28.2

====

test: Half-lives after intravenous dosage in guinea pigs; settings: guinea pig, in vivo, 10 mg/kg, two guinea pigs, i.v. 10 mg/kg, read-out: half-life, elimination phase (converted)
Measured Endpoint: half-life (h)
Give bare numbers, in h.

## Task Which value of half-life has been reported for Clc1cc2c(cc1Cl)Sc1cc(Cl)c(Cl)cc1N2 in the records?
## Result 2.71
